# experimental-system: CYP2D6 (Homo sapiens)
# Sequence (P10635 whole entry): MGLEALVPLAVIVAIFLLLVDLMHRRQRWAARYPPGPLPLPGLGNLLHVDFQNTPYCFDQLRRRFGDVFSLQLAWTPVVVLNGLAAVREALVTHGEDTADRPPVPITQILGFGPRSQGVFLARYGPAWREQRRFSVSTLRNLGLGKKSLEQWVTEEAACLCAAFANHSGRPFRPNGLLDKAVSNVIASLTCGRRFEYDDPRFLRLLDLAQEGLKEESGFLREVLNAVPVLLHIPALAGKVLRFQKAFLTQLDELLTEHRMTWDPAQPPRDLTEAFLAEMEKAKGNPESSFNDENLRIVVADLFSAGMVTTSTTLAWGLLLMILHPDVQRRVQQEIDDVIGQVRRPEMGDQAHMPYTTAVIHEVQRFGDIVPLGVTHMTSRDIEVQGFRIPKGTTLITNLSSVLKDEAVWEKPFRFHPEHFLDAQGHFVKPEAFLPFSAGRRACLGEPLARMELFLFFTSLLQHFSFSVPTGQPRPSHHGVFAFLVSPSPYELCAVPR
# test-summary: CYP450 inhibition CDNA-CYP2D6-AMMC
# condition-info: 10 μM test compound, substrate AMMC 3 μM, 45 min
assay-endpoint: Cyp450 inhibition: CDNA-CYP2D6-AMMC (% inhibition) (%)

[[record]]
chemical_smiles = "CC(C)CN(C[C@@H](O)[C@H](Cc1ccccc1)NC(=O)OCc1cncs1)C(=O)c1ccc2nc(N(C)C)oc2c1"
experimental_system = "CYP2D6 (Homo sapiens)"
measured_number = 26

[[record]]
chemical_smiles = "CC(C)CN(C[C@@H](O)[C@H](Cc1ccccc1)NC(=O)OCc1cncs1)C(=O)c1ccc2nc(-c3ccncc3)oc2c1"
experimental_system = "CYP2D6 (Homo sapiens)"
measured_number = 74

[[record]]
chemical_smiles = "CC(C)CN(C[C@@H](O)[C@H](Cc1ccccc1)NC(=O)OCc1cncs1)C(=O)c1ccc2nc(NC3CCN(C)CC3)oc2c1"
experimental_system = "CYP2D6 (Homo sapiens)"
measured_number = 67

[[record]]
chemical_smiles = "CCNc1nc2ccc(C(=O)N(C[C@@H](O)[C@H](Cc3ccccc3)NC(=O)OCc3cncs3)CC(C)(C)O)cc2o1"
experimental_system = "CYP2D6 (Homo sapiens)"
measured_number = 38

[[record]]
chemical_smiles = "CCNc1nc2ccc(C(=O)N(CC(C)C)C[C@@H](O)[C@H](Cc3ccccc3)NC(=O)OCc3cncs3)cc2o1"
experimental_system = "CYP2D6 (Homo sapiens)"
measured_number = 70


// provenance: patent US8350048B2
